System: Human M4 (Homo sapiens, UniProt P08173)
Construct: Human or rat M4 cDNA, along with the chimeric G protein Gqi5, were transfected into Chinese hamster ovary (CHO-K1) cells
Sequence (P08173 whole entry): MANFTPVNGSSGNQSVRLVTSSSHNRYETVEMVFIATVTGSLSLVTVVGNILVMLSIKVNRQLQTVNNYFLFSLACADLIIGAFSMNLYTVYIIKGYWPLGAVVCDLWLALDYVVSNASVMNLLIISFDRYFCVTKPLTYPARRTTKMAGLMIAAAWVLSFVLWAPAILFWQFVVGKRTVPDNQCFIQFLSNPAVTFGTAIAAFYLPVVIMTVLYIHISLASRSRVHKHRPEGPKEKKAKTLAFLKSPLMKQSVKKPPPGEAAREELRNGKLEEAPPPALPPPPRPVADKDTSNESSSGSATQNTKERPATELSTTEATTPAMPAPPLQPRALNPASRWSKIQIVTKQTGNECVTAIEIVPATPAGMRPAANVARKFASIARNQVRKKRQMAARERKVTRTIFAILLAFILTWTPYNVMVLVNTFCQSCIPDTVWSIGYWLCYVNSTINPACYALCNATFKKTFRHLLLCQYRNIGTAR
Assay remarks: mAChR M4 cell-based functional assay (calcium flux, decrease of EC80 acetylcholine response)
Condition set: M4/Gqi5/CHO-K1 cells; decrease of response to EC80 acetylcholine
Procedure: Human or rat M4 cDNA, along with the chimeric G protein Gqi5, were transfected into Chinese hamster ovary (CHO-K1) cells purchased from the American Type Culture Collection using Lipofectamine2000. […] Calcium flux was measured using the Functional Drug Screening System (FDSS) 6000 or 7000 (Hamamatsu Corporation, Tokyo, Japan) as an increase in the fluorescent static ratio. […] Agonist activity was analyzed as a concentration-dependent increase in calcium mobilization upon compound addition. […]
Endpoint: log10(IC50) (log10 of the value in nM)
// units: nM (pre-log); metric: IC50; scale: log10

Task item: Given the entry [2H]C([2H])(C1CCOCC1)N1C[C@H]2C[C@H](Nc3nnc(-c4ccc5c(c4)ncn5C)cc3C(F)(F)F)C[C@H]2C1 , report its measured log10(IC50).
Reply: 2.13

Task item: Given the entry N#Cc1ccc(F)c(-c2cc(C(F)(F)F)c(N[C@H]3C[C@@H]4CN(CC5CCOCC5)C[C@@H]4C3)nn2)c1 , report its measured log10(IC50).
Reply: 2.35

Task item: Given the entry Cn1ncc2cc(-c3cc(C(F)(F)F)c(N[C@H]4C[C@@H]5CN(CC6CCOCC6)C[C@@H]5C4)nn3)ccc21 , report its measured log10(IC50).
Reply: 1.65

Task item: Given the entry [2H]C([2H])(C1CCOCC1)N1C[C@H]2C[C@H](Nc3nnc(-c4cc(F)c(F)cc4F)cc3C(F)(F)F)C[C@H]2C1 , report its measured log10(IC50).
Reply: 2.53

Task item: Given the entry Fc1cc(OC(F)F)ccc1-c1cc(C(F)(F)F)c(N[C@H]2C[C@@H]3CN(CC4CCOCC4)C[C@@H]3C2)nn1 , report its measured log10(IC50).
Reply: 2.61

Task item: Given the entry FC1(F)CCCN(c2cc(C(F)(F)F)c(N[C@H]3C[C@@H]4CN(CC5CCOCC5)C[C@@H]4C3)nn2)C1 , report its measured log10(IC50).
Reply: 1.33

Task item: Given the entry Cc1cc(F)ccc1-c1cc(C(F)(F)F)c(N[C@H]2C[C@@H]3CN(CC4CCOCC4)C[C@@H]3C2)nn1 , report its measured log10(IC50).
Reply: 1.59

Task item: Given the entry Cc1ccc(F)cc1-c1cc(C(F)(F)F)c(N[C@H]2C[C@@H]3CN(CC4COCC4C)C[C@@H]3C2)nn1 (stereo partly shown) , report its measured log10(IC50).
Reply: 1.72

Task item: Given the entry Cn1ccc2cc(-c3cc(C(F)(F)F)c(N[C@H]4C[C@@H]5CN(CC6CCOCC6)C[C@@H]5C4)nn3)ccc21 , report its measured log10(IC50).
Reply: 1.95

Task item: Given the entry Fc1ccccc1-c1cc(C(F)(F)F)c(N[C@H]2C[C@@H]3CN(Cc4ccccn4)C[C@@H]3C2)nn1 , report its measured log10(IC50).
Reply: 2.83

Task item: Given the entry Cc1ccc(F)cc1-c1cc(C(F)(F)F)c(O[C@H]2C[C@@H]3CN(CC4CCOCC4)C[C@@H]3C2)nn1 , report its measured log10(IC50).
Reply: 3.09

Task item: Given the entry [2H][C@@]1(Nc2nnc(-c3cccc(F)c3)cc2C(F)(F)F)C[C@H]2CN(CC3CCOCC3)C[C@H]2C1 , report its measured log10(IC50).
Reply: 1.81
